Entries and their koff
Study target: T1, recombinant hAng-2 (C-His, R&D Systems) (human, UniProt O15123 19-496)
T1 construct: Bought protein; also called human Ang-2 protein; C-terminal histidine-tagged human Ang2 (R&D Systems); not shown: C-terminal His tag
T1 sequence: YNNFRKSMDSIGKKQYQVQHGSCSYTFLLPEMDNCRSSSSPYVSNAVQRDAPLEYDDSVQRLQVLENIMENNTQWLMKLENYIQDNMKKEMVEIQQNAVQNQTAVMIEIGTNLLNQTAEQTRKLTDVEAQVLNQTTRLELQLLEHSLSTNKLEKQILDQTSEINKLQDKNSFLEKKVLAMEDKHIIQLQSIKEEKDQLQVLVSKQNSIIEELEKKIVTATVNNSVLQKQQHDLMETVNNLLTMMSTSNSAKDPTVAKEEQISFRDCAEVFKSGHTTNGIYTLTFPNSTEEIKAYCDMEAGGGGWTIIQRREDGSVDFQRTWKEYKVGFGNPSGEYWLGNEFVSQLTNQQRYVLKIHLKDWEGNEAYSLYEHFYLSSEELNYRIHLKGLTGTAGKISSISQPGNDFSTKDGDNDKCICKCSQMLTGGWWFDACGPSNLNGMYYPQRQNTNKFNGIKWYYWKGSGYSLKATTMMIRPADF
Test details: SPR, BIAcore T100; hAng2 (C-His) captured by anti-His antibody on CM5, antibody as analyte
// return numeric value only (unit: s⁻¹, not printed)

These solved cases illustrate the format of a correct answer.
Binder	koff, s⁻¹
h10D6-OPTI-2 (antibody, human IgG1, V domains shown) VH: QVQLQESGPGLVKPSETLSLTCAVSGYSITSDYAWNWIRQPPGKGLEWMGKINYAGNTDYNPSLKSRSTISRDTSKNQFSLKLSSVTAADTAVYYCARGNFEGAMDYWGQGTLVTVSS VL: DIQMTQSPSSLSASVGDRVTITCKASQSVSNDVAWYQQKPGKAPKLLIYYASNRYPGVPSRFSGSGSGTDFTLTISSLQPEDFATYYCQQDYSSPWTFGQGTKLEIK	0.000149
h10D6-OPTI-17 (antibody, human IgG1, V domains shown) VH: EVQLVESGGGLVQPGGSLRLSCAASGYSITSDYAWNWVRQAPGKGLEWMGKINYAGNTDYNPSLKSRSTISRDTSKNTFYLQMNSLRAEDTAVYYCARGNFEGAMDYWGQGTLVTVSS VL: DIQMTQSPSSLSASVGDRVTITCKASQSVSNDVHWYQQKPGKAPKLLIYYASNRYPGVPSRFSGSGSGTDFTLTISSLQPEDFATYYCQQDYSSPWTFGQGTKLEIK	0.00035

Turning to the following binder.
Input: What value of koff has been recorded for this entry: SAIT-ANG2-AB-m10D6 (antibody, V domains shown, Mouse monoclonal antibody purified from a hybridoma (KCLRF-BP-00295); it is not applied here; also called mouse antibody 10D6; 10D6 antibody) VH: DVQLQESGPDLVKPSQSLSLTCTVTGYSITSDYAWNWIRQFPGNKLEWMGYINYSGNTDYNPSLKSRSSITRDTSKNQFFLQLNSVTTGDTATYYCARGNFEGAMDYWGQGTSVTVSS VL: SIVMTQTPKFLLVSAGDRVTITCKASQSVSNDVAWYQQKPGQSPKLLIYYASNRYPGVPDRFTGSGYGTDFTFTISTVQAEDLAVYFCQQDYSSPWTFGGGTKLEIK
Output: 0.000193

src = patent US20160053025A1
